Biological target: T1, recombinant human MCP-2 (human, UniProt P80075 24-99)
T1 construct: also called rhMCP-2
T1 sequence (looked up): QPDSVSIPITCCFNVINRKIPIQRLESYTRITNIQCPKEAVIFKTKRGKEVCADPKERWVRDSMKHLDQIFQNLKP
Test: ELISA, coated antigen
From the text: Determining cross-reactivity of anti-MCP-1 antibodies with other chemokines. […]
Endpoint: ELISA OD (OD450)
# value in OD450; strip the unit string

In the examples that follow, each entry is paired with its recorded ELISA OD.
{"columns": ["Binder", "ELISA OD [OD450]"],
 "data": [
  ["anti-MCP-1 mAb 1.6.1 (antibody, V domains shown) VH: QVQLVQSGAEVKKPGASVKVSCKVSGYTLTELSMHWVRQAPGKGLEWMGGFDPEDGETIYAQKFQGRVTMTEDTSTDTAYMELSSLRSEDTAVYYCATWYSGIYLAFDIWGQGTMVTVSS VL: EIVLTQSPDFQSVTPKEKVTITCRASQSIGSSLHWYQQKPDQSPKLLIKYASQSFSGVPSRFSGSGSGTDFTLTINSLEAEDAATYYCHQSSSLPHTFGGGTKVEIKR", 0.042],
  ["anti-MCP-1 mAb 3.11.1 (antibody, human IgG4, kappa, V domains shown) VH: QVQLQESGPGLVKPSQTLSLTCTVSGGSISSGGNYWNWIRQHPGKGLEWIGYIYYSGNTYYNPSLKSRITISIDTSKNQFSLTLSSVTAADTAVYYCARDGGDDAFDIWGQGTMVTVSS VL: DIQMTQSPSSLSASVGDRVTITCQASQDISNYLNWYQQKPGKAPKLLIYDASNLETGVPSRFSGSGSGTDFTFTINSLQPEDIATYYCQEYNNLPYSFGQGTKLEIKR", 0.336],
  ["anti-MCP-1 mAb 2.4.1 (antibody, V domains shown) VH: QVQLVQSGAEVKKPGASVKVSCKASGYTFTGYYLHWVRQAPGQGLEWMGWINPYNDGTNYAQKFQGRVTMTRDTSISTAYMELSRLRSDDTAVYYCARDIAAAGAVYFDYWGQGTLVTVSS VL: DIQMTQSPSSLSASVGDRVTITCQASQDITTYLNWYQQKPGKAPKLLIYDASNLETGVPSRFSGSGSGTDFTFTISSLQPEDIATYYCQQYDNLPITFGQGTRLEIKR", 0.045],
  ["anti-MCP-1 mAb 3.5.1 (antibody, V domains shown) VH: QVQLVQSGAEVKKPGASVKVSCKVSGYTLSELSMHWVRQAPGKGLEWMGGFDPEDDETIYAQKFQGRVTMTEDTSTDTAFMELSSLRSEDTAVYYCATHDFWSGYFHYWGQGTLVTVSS VL: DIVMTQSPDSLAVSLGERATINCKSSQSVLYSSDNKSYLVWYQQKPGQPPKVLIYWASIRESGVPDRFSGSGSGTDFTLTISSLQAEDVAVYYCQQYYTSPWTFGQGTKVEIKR", 0.042],
  ["anti-MCP-1 mAb 1.8.1 (antibody, V domains shown) VH: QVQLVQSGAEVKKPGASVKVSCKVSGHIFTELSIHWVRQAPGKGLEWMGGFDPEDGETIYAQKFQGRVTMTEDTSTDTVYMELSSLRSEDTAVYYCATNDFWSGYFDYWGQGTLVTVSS VL: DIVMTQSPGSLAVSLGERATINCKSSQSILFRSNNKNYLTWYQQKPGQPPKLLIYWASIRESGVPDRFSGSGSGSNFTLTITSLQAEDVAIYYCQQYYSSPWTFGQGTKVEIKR", 0.048],
  ["anti-MCP-1 mAb 3.2 (antibody, V domains shown, also called 3.2 (neat)) VH: QVQLVQSGAEVKKPGASVKVSCKVSGYTLSELSMHWVRQAPGKGLEWMGGFDPEDGEIIHAQKFQGRVTMTEDTSTDTAYMELSSLRSEDTAVYYCATGDFWSGYYLDWWGQGTLVTVSS VL: EIVMMQSPATLSVSPGERATLSCRASQSVNSNLAWYQQKPGQAPRLLINGASTRATGIPARFSGSGSGTEFTLTISSLQSEDFAIYYCQQYNDWPTFTFGGGTKVEINR", 0.535],
  ["anti-MCP-1 mAb 3.10.1 (antibody, V domains shown) VH: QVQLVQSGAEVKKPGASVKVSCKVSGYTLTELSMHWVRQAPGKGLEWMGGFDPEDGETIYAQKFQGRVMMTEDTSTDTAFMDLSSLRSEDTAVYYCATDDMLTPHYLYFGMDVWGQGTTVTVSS VL: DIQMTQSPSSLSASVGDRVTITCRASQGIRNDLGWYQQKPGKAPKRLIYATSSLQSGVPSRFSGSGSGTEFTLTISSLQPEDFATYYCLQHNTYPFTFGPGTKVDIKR", 0.845],
  ["anti-MCP-1 mAb 1.11.1 (antibody, V domains shown) VH: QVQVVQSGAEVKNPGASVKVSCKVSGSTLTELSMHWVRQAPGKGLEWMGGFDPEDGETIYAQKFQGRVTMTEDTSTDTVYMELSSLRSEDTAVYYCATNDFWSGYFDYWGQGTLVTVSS VL: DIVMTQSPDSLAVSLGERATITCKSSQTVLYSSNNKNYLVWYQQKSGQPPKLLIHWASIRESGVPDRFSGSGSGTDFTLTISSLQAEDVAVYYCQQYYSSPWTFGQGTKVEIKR", 0.041],
  ["anti-MCP-1 mAb 1.1.1 (antibody, human IgG2, kappa, V domains shown) VH: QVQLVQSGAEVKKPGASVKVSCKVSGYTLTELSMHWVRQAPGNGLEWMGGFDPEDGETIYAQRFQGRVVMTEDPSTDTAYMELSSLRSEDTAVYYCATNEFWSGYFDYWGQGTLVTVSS VL: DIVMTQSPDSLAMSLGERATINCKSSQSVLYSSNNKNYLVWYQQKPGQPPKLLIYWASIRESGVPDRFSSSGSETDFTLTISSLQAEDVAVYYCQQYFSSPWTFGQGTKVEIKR", 0.051]
]}

# evaluate next
input: Any idea what ELISA OD was measured for anti-MCP-1 mAb 5.3.1 (antibody, V domains shown) VH: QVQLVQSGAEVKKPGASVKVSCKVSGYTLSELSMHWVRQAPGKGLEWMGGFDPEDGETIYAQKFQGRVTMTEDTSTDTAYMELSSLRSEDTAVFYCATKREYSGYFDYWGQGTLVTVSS VL: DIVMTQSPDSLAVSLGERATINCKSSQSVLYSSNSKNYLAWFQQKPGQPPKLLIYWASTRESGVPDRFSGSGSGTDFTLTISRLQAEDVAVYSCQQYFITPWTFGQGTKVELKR ?
output: 0.043
